Test system: PA-1
Assay: Primary qHTS to identify gynecologic anti-cancer compounds using libraries of approved drugs and bioactive compounds (AID 1345084); also: % is scaled to controls: 0 for no effect and ±100 for the full control effect; nearly all actives have a fitted effect of over 55% in size
Settings: Gynecologic cancer cell panel viability, ATPlite luminescence, 48 h; series mostly up to 57.5 µM
Records with an inconclusive call do not appear. Calls of active or inactive are those of the source. Calls follow the shape of the dose curve; as a rule, active = well fitted cell-killing curve with a large enough effect; inconclusive = small, poorly fitted or top-dose-only effect, or effect the other way; inactive = flat fitted curve, though single readings scatter.
observation_type: activity change, negative = cytotoxicity

Worked examples, 5 compounds total:
compound	activity change, negative = cytotoxicity
C[C@]12CC[C@H]3[C@@H]([C@H](O)CC4=CC(=O)CC[C@@]43C)[C@@H]1CC[C@@H]2O	inactive
CC(=O)OC12C(O)C(C)C3(O)C4C=C(C)C(=O)C4CC(CO)=CC3C1C2(C)C (stereo unspecified)	inactive
O=C(N1CCOCC1)N1CCN(c2ccc(Cl)cc2)CC1	inactive
CCc1[nH]c2ccc(OC)cc2c1CCN(C)C	inactive
C=CC(C)(O)CC/C=C(\C)C(=O)O[C@H]1[C@H](O)[C@@H](CO)O[C@@H](OC(=O)[C@]23CCC(C)(C)CC2C2=CCC4[C@@]5(C)CC[C@H](O[C@@H]6O[C@H](CO[C@@H]7OC[C@H](O)[C@H](O)[C@H]7O[C@@H]7OC[C@@H](O)[C@H](O)[C@H]7O)[C@@H](O)[C@H](O)[C@H]6O)C(C)(C)C5CC[C@@]4(C)[C@]2(C)CC3)[C@@H]1OC1OC(C)C(O[C@@H]2OC[C@@H](O)[C@H](O[C@@H]3OC[C@@H](O)[C@H](O)[C@H]3O)[C@H]2O)C(O)C1O (stereo partly specified)	3.75% [at 6.55 µM] (inactive)

Proceed to the following item.
Just so you know, measured activity change, negative = cytotoxicity for CC(C)C1(OO)C=C2C(=O)CC3C(C)(C(=O)O)CCCC3(C)C2CC1 (stereo unspecified) came out at inactive
